Reference for the values: paper PMC9069370

# assay_method_text: Tryptophan fluorescent binding assay
# conditions: tryptophan fluorescence; 50 µM peptide, lipid titrated 0-5000 µM; phosphate buffered saline 1X, pH 7.4; values as lipid per peptide
Peptide text beside a SMILES is read from it.
Please go through the items and note down their Lipid Concentration-induced 50% Peptide Binding (L/P), POPC Vesicle.
Answers are plain numbers, in L/P.

>  <compound>
CC(C)C[C@H](NC(=O)CN)C(=O)N[C@@H](CC(C)C)C(=O)N[C@@H](CC(=O)O)C(=O)N[C@@H](CC(C)C)C(=O)N[C@@H](CC(C)C)C(=O)N[C@@H](Cc1c[nH]cn1)C(=O)N[C@@H](CC(C)C)C(=O)N[C@@H](CC(C)C)C(=O)N[C@@H](CC(C)C)C(=O)N[C@@H](CCCCN)C(=O)N[C@@H](C)C(=O)N[C@@H](C)C(=O)NCC(=O)N[C@@H](Cc1c[nH]c2ccccc12)C(N)=O [DHK] (H-GLLDLLHLLLKAAGW-NH2)

>  <meas_value>
0.20

$$$$
>  <compound>
CC(C)C[C@H](NC(=O)CN)C(=O)N[C@@H](CC(C)C)C(=O)N[C@@H](CCCCN)C(=O)N[C@@H](CC(C)C)C(=O)N[C@@H](CC(C)C)C(=O)N[C@@H](Cc1c[nH]cn1)C(=O)N[C@@H](CC(C)C)C(=O)N[C@@H](CC(C)C)C(=O)N[C@@H](CC(C)C)C(=O)N[C@@H](CCC(=O)O)C(=O)N[C@@H](C)C(=O)N[C@@H](C)C(=O)NCC(=O)N[C@@H](Cc1c[nH]c2ccccc12)C(N)=O [KHE] (H-GLLKLLHLLLEAAGW-NH2)

>  <meas_value>
0.88

$$$$

Turning to the following compound.
Find the measured Lipid Concentration-induced 50% Peptide Binding (L/P), POPC Vesicle of CC(C)C[C@H](NC(=O)CN)C(=O)N[C@@H](CC(C)C)C(=O)N[C@@H](CCCCN)C(=O)N[C@@H](CC(C)C)C(=O)N[C@@H](CC(C)C)C(=O)N[C@@H](CCCCN)C(=O)N[C@@H](CC(C)C)C(=O)N[C@@H](CC(C)C)C(=O)N[C@@H](CC(C)C)C(=O)N[C@@H](CCC(=O)O)C(=O)N[C@@H](C)C(=O)N[C@@H](C)C(=O)NCC(=O)N[C@@H](Cc1c[nH]c2ccccc12)C(N)=O [KKE] (H-GLLKLLKLLLEAAGW-NH2) and report it.
0.48
